From: PubChem BioAssay

protocolDescription: reduction of polyQ htt aggregates in cells – imaging, exon1htt(103Q)mCFP cells, high-content imaging, primary screen (AID 483);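 also: compound exposure lasted 3 days before fixation; percent of the per-plate median nuclei count of sample wells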
setupConditions: exon1htt(103Q)mCFP cell line, aggregate imaging, at 2 µM; measured here: cell count, toxicity
Below, each entry is listed alongside its reported nuclei count.

{"compound": "Cc1cc2c(cc1C)-c1nnnn1C(C)(C)C2", "nuclei count, %": 91.6}
{"compound": "O=C(Nc1ccccc1C(=O)N1CCN(c2ccccc2)CC1)c1ccco1", "nuclei count, %": 98.2}
{"compound": "COc1cccc(S(=O)(=O)Nc2ccc(C(=O)N3CCN(C(=O)c4ccco4)CC3)cc2)c1", "nuclei count, %": 108}
{"compound": "CCCNC(=O)NC(C(=O)OC)C12CC3CC(CC(C3)C1)C2 (stereo unspecified)", "nuclei count, %": 76.7}
{"compound": "COc1ccc(NC(=O)C2CCCN2S(=O)(=O)c2cccc3cccnc23)c(OC)c1 (stereo unspecified)", "nuclei count, %": 77.7}
{"compound": "Cc1cccc2c1nc(-c1ccccc1)n1cnnc21", "nuclei count, %": 73}

----------
Below, each entry is listed alongside its reported inhibition.
protocolDescription: TLR3 IRF3 reporter activation blockers – cell-based, poly I:C stimulus, luciferase, 10K MLSCN set, primary screen (AID 602277)
setupConditions: HEK293-TLR3 RL24 IRF3 luciferase reporter, at 10 µM, stronger effect = higher value

{"molecule": "CN(C)CCCn1c(N)c(C#N)c2nc(C#N)c(C#N)nc21", "inhibition (%)": 79.3}
{"molecule": "O=c1c2c(-c3ccccc3)csc2nc2n1CCC2", "inhibition (%)": 1.9}
{"molecule": "Nc1nc(NCc2ccco2)nn1-c1ccccc1", "inhibition (%)": -10.7}
{"molecule": "CC1=C(C(=O)OC2CCCCC2)C(c2cccnc2)n2ncnc2N1 (configuration not stated)", "inhibition (%)": 26.4}
{"molecule": "O=C(C1CCCCC1)N1CCC(c2nc3c(nnn3Cc3c(F)cccc3Cl)c(=O)[nH]2)CC1", "inhibition (%)": 27}
{"molecule": "Cc1c(-n2c(CN3C(=O)c4ccccc4C3=O)nc3ccccc3c2=O)c(=O)n(-c2ccccc2)n1C", "inhibition (%)": 24.9}
{"molecule": "CN(C(=O)c1ccccn1)c1nnc(-c2cccnc2)s1", "inhibition (%)": -16.2}
{"molecule": "CCCCOC(=O)CN1C(=O)c2ccc(C(=O)OCCCC)cc2C1=O", "inhibition (%)": 26}
{"molecule": "COC(=O)CSc1nnc(-c2ccncc2)o1", "inhibition (%)": 32.3}
{"molecule": "Cn1c2ccc(F)cc2c2ncn(CCN3CCOCC3)c(=O)c21", "inhibition (%)": 99.1}
{"molecule": "CCCn1c(N)c(C(=O)CSc2nnc(Cc3ccccc3)o2)c(=O)n(C)c1=O", "inhibition (%)": -3.84}
{"molecule": "CC1CN(Cc2nc3c(c(=O)[nH]c(=O)n3C)n2CC(N)=O)CC(C)O1 (configuration not stated)", "inhibition (%)": 20.4}
{"molecule": "CCOc1ccc(-c2nnn(CC(=O)N3CCN(c4ccc(F)cc4)CC3)n2)cc1OCC", "inhibition (%)": 14}
{"molecule": "Cc1ccc(NC(=O)c2ccco2)cc1NC(=O)CSc1nnc(-c2cccs2)n1C", "inhibition (%)": 14.1}
{"molecule": "COc1cc2cc(C(c3nnnn3C3CCCC3)N(C)C3CCCCC3)c(=O)[nH]c2cc1OC (configuration not stated)", "inhibition (%)": 22}
{"molecule": "CC1=C(C(=O)OCc2ccccc2)C(c2ccc(C)o2)C2=C(CCCC2=O)N1 (configuration not stated)", "inhibition (%)": 15.6}
{"molecule": "COC(=O)CS(=O)(=O)c1nnc([C@H](Cc2ccccc2)NC(=O)OC(C)(C)C)o1", "inhibition (%)": 33.7}
{"molecule": "O=C(OCc1ccccc1F)c1ccc2c(c1)OCCO2", "inhibition (%)": -113}
{"molecule": "CC(C)CC(OC(=O)c1cccs1)C(=O)NCc1ccco1 (configuration not stated)", "inhibition (%)": 11.5}
{"molecule": "N#CC(C(=O)c1ccco1)c1ccccn1 (configuration not stated)", "inhibition (%)": -54}
{"molecule": "CC1CCCN(C(=O)C23CCC(C)(C(=O)C2)C3(C)C)C1 (configuration not stated)", "inhibition (%)": 8.32}
{"molecule": "[N-]=[N+]=CC(=O)CC(c1ccccc1)N1C(=O)c2ccccc2C1=O (configuration not stated)", "inhibition (%)": -29.5}

----------
protocolDescription: inhibitors of TNFa-induced NFkB p65 translocation, primary screen, imaging, HUVEC, MLSMR starter and 10KST1 sets (AID 438);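 also: compound added about 3h40 before a 20 min TNFalpha stimulation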
setupConditions: HUVEC TNFa-induced p65 nuclear translocation; measured here: nuclei count (cytotoxicity indicator), at 2.08 µM
measurementType: cell count

{"compound": "CC(=O)C(Sc1ncnc2c1nnn2-c1ccc(F)cc1)C(=O)N(C)C (stereo unspecified)", "measurementType": "cell count", "readoutNumber": 464}
{"compound": "Cc1nc2ccc(S(=O)(=O)NC(C(=O)Nc3nccs3)C(C)C)cc2s1 (stereo unspecified)", "measurementType": "cell count", "readoutNumber": 549}
{"compound": "COc1ccccc1N(CC(=O)NCc1ccccn1)S(C)(=O)=O", "measurementType": "cell count", "readoutNumber": 355}
{"compound": "CCCCN(Cc1cc2cc(OC)ccc2[nH]c1=O)C(=O)c1ccccn1", "measurementType": "cell count", "readoutNumber": 339}
{"compound": "CC(=O)c1ccc(-n2nnnc2SCC(=O)N2CCc3ccccc3C2)cc1", "measurementType": "cell count", "readoutNumber": 434}
{"compound": "COc1ccc(Nc2nc(-c3sc(N)nc3C)cs2)cc1", "measurementType": "cell count", "readoutNumber": 661}

----------
Below, each entry is listed alongside its reported nuclei count.
protocolDescription: reduction of polyQ htt aggregates in cells – imaging, exon1htt(103Q)mCFP cells, high-content imaging, primary screen (AID 483);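 also: compound exposure lasted 3 days before fixation; percent of the per-plate median nuclei count of sample wells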
setupConditions: exon1htt(103Q)mCFP cell line, aggregate imaging, at 2 µM; measured here: cell count, toxicity
measurementType: nuclei count (%)

{"compound": "O=C1N(c2ccccc2)C2CS(=O)(=O)CC2N1c1ccc(Br)cc1 (configuration not stated)", "measurementType": "nuclei count", "unitSpec": "%", "readoutNumber": 88.5}
{"compound": "Cc1ccc(OCCC(=O)OCC(=O)C(C)(C)C)cc1", "measurementType": "nuclei count", "unitSpec": "%", "readoutNumber": 101}
{"compound": "COCCN(C(=O)c1csnn1)C(C(=O)NC1CCCCC1)c1cccs1 (configuration not stated)", "measurementType": "nuclei count", "unitSpec": "%", "readoutNumber": 107}
{"compound": "COC(=O)C(C)Sc1nnc2n(-c3cccc(C)c3)c(=O)c3c4c(sc3n12)CCCC4 (configuration not stated)", "measurementType": "nuclei count", "unitSpec": "%", "readoutNumber": 101}
{"compound": "Cc1cc(C)cc(NC(=O)CCNS(=O)(=O)c2ccc3c(c2)oc(=O)n3C)c1", "measurementType": "nuclei count", "unitSpec": "%", "readoutNumber": 120}
{"compound": "O=C(CN1C(=O)NC2(CCCCC2)C1=O)Nc1ccc(S(=O)(=O)N2CCOCC2)cc1", "measurementType": "nuclei count", "unitSpec": "%", "readoutNumber": 93.7}
{"compound": "Cc1noc(/C=C/N(C)C)c1S(=O)(=O)N1CCCC(C(=O)N2CCc3ccccc32)C1 (configuration not stated)", "measurementType": "nuclei count", "unitSpec": "%", "readoutNumber": 86.6}
{"compound": "CCCOc1ccccc1NC(=O)c1c(-c2ccccc2)noc1C", "measurementType": "nuclei count", "unitSpec": "%", "readoutNumber": 111}
{"compound": "CCOc1ccc(-c2cn(S(=O)(=O)c3cccc4nsnc34)nc2N)cc1", "measurementType": "nuclei count", "unitSpec": "%", "readoutNumber": 107}
{"compound": "N#Cc1c(-c2ccccc2)nc(N2CCCCCC2)[nH]c1=O", "measurementType": "nuclei count", "unitSpec": "%", "readoutNumber": 102}
{"compound": "CC(=O)NC(Cc1ccccc1)C(=O)NC1CCN(C(=O)c2cnccn2)CC1 (configuration not stated)", "measurementType": "nuclei count", "unitSpec": "%", "readoutNumber": 136}
{"compound": "CN1C(=O)CCC1(O)c1ccccc1 (configuration not stated)", "measurementType": "nuclei count", "unitSpec": "%", "readoutNumber": 54.1}
{"compound": "COC(=O)c1cccc(NC(=O)Cc2coc3cc(OC)ccc23)c1", "measurementType": "nuclei count", "unitSpec": "%", "readoutNumber": 75.4}
{"compound": "COc1cccc(-n2c(SCC(=O)Nc3cc(C)on3)nc3c([nH]c4ccccc43)c2=O)c1", "measurementType": "nuclei count", "unitSpec": "%", "readoutNumber": 89.7}
{"compound": "CCCN1C2CCCC1CC(NC(=O)c1ccccc1F)C2 (configuration not stated)", "measurementType": "nuclei count", "unitSpec": "%", "readoutNumber": 115}
{"compound": "CCOC(=O)N1CCN(C(=O)COc2ccc(S(=O)(=O)NC3CCCCC3)cc2C)CC1", "measurementType": "nuclei count", "unitSpec": "%", "readoutNumber": 105}
{"compound": "c1ccc(CN2CCN(CCCNc3ccc4nnc(-c5ccccc5)n4n3)CC2)cc1", "measurementType": "nuclei count", "unitSpec": "%", "readoutNumber": 10.8}
{"compound": "Oc1cc(NCc2cccnc2)ccc1-c1nc2ccccc2o1", "measurementType": "nuclei count", "unitSpec": "%", "readoutNumber": 119}
{"compound": "CC(=O)Nc1cccc(NC(=O)c2oc3ccccc3c2C)c1", "measurementType": "nuclei count", "unitSpec": "%", "readoutNumber": 98.8}
{"compound": "Cn1cnc2c1c(=O)n(Cc1cccc(Br)c1)c(=O)n2C", "measurementType": "nuclei count", "unitSpec": "%", "readoutNumber": 113}
{"compound": "O=C(NC1CCCC1)C1CCCN(S(=O)(=O)c2cccc3cccnc23)C1 (configuration not stated)", "measurementType": "nuclei count", "unitSpec": "%", "readoutNumber": 107}
{"compound": "COc1ccc(S(=O)(=O)N(C)C2CCN(C)CC2)cc1", "measurementType": "nuclei count", "unitSpec": "%", "readoutNumber": 128}
